These measurements were taken from paper PMC5754937.

Assay remarks: In vivo pharmacokinetics in male BALB/c mice
Condition description: male, BALB/c, mouse, plasma, iv, 15 mg/kg, CL, normal saline
Counter-ions that a name gives are not always drawn.
Readout type: clearance

Input: Entry NC[C@@H]1O[C@H](O[C@H]2[C@@H](O)[C@H](O[C@@H]3[C@@H](O)[C@H](N)C[C@H](N)[C@H]3O[C@H]3O[C@H](CO)[C@@H](O)[C@H](O)[C@H]3N)O[C@@H]2CO)[C@H](N)[C@@H](O)[C@@H]1O [paromomycin, Paromomycin sulfate] : reported clearance = ?
Output: 8 mL/min/kg
